Values were extracted from the supplement of paper PMC8149375.

# System: 769-P
# assay.summary: GI50 of drug in presence of dasatinib; higher = less potent
# measurement.parameters: treatment: drug + dasatinib (fixed dose, not stated); 5 days
// reported GI50 of drug for each item listed
parameter.measured: GI50 of drug (nM)

[[record]]
compound = "C[C@@H](Oc1cc(-n2cnc3ccc(CN4CCN(C)CC4)cc32)sc1C(N)=O)c1ccccc1C(F)(F)F + Cc1nc(Nc2ncc(C(=O)Nc3c(C)cccc3Cl)s2)cc(N2CCN(CCO)CC2)n1 [dasatinib]"
qual = "="
assay_value = 31

[[record]]
compound = "C=CCc1cccc(/C=N/NC(=O)CN2CCN(Cc3ccccc3)CC2)c1O [PAC-1] + Cc1nc(Nc2ncc(C(=O)Nc3c(C)cccc3Cl)s2)cc(N2CCN(CCO)CC2)n1 [dasatinib]"
qual = "="
assay_value = 1420

[[record]]
compound = "CCCNC(=O)Nc1ccc(Oc2ncnc3cc(OC)c(OC)cc23)cc1Cl [KRN 633] + Cc1nc(Nc2ncc(C(=O)Nc3c(C)cccc3Cl)s2)cc(N2CCN(CCO)CC2)n1 [dasatinib]"
qual = ">"
assay_value = 10000

[[record]]
compound = "COc1ncc(-c2ccc3nccc(-c4ccnnc4)c3c2)cc1NS(=O)(=O)c1ccc(F)cc1F + Cc1nc(Nc2ncc(C(=O)Nc3c(C)cccc3Cl)s2)cc(N2CCN(CCO)CC2)n1 [dasatinib]"
qual = "="
assay_value = 18.4

[[record]]
compound = "CCN1CCN(Cc2ccc(-c3cc4c(N[C@H](C)c5ccccc5)ncnc4[nH]3)cc2)CC1 [AEE788 (NVP-AEE788)] + Cc1nc(Nc2ncc(C(=O)Nc3c(C)cccc3Cl)s2)cc(N2CCN(CCO)CC2)n1 [dasatinib]"
qual = "="
assay_value = 298


---

# System: TK-10
# assay.summary: AUC of dose-response viability curve, drug + dasatinib, normalised to DMSO (arbitrary (AUC of normalised viability)); higher = less growth inhibition
# measurement.parameters: treatment: drug + dasatinib (fixed dose, not stated); 5 days
parameter.measured: AUC of dose-response viability curve

[[record]]
compound = "COc1cc(OC)c(/C=C/S(=O)(=O)Cc2ccc(OC)c(NCC(=O)[O][Na])c2)c(OC)c1 + Cc1nc(Nc2ncc(C(=O)Nc3c(C)cccc3Cl)s2)cc(N2CCN(CCO)CC2)n1 [dasatinib]"
test_target = "TK-10"
assay_value = 1.79

[[record]]
compound = "Cc1[nH]c(/C=C2\\C(=O)Nc3ccc(S(=O)(=O)Cc4c(Cl)cccc4Cl)cc32)c(C)c1C(=O)N1CCC[C@@H]1CN1CCCC1 + Cc1nc(Nc2ncc(C(=O)Nc3c(C)cccc3Cl)s2)cc(N2CCN(CCO)CC2)n1 [dasatinib]"
test_target = "TK-10"
assay_value = 2.73

[[record]]
compound = "C#Cc1cccc(Nc2ncnc3cc(OCCOC)c(OCCO)cc23)c1.Cl [OSI-420 (Desmethyl Erlotinib)] + Cc1nc(Nc2ncc(C(=O)Nc3c(C)cccc3Cl)s2)cc(N2CCN(CCO)CC2)n1 [dasatinib]"
test_target = "TK-10"
assay_value = 2.18

[[record]]
compound = "Nc1ncnc2c1c(-c1cccc(OCc3ccccc3)c1)cn2[C@H]1C[C@H](CN2CCCC2)C1 [NVP-ADW742] + Cc1nc(Nc2ncc(C(=O)Nc3c(C)cccc3Cl)s2)cc(N2CCN(CCO)CC2)n1 [dasatinib]"
test_target = "TK-10"
assay_value = 2.44

[[record]]
compound = "Cc1cc(C(C)Nc2ccccc2)c2nc(N3CCOCC3)cc(=O)n2c1 (centres undefined) [TGX-221] + Cc1nc(Nc2ncc(C(=O)Nc3c(C)cccc3Cl)s2)cc(N2CCN(CCO)CC2)n1 [dasatinib]"
test_target = "TK-10"
assay_value = 2.35

[[record]]
compound = "CNC(=O)c1cc(Oc2ccc(NC(=O)Nc3ccc(Cl)c(C(F)(F)F)c3)cc2)ccn1.Cc1ccc(S(=O)(=O)O)cc1 [Sorafenib (Nexavar)] + Cc1nc(Nc2ncc(C(=O)Nc3c(C)cccc3Cl)s2)cc(N2CCN(CCO)CC2)n1 [dasatinib]"
test_target = "TK-10"
assay_value = 2.72

[[record]]
compound = "C[C@]1(O)C[C@@H](c2nc(-c3ccc4ccc(-c5ccccc5)nc4c3)c3c(N)nccn32)C1 [Linsitinib (OSI-906)] + Cc1nc(Nc2ncc(C(=O)Nc3c(C)cccc3Cl)s2)cc(N2CCN(CCO)CC2)n1 [dasatinib]"
test_target = "TK-10"
assay_value = 2.43

[[record]]
compound = "Cc1ccc(S(=O)(=O)Nc2nc3ccccc3nc2Nc2ccc3nsnc3c2)cc1 [XL147] + Cc1nc(Nc2ncc(C(=O)Nc3c(C)cccc3Cl)s2)cc(N2CCN(CCO)CC2)n1 [dasatinib]"
test_target = "TK-10"
assay_value = 2.87

[[record]]
compound = "COc1ccc2c(c1OC)N=C(NC(=O)c1cccnc1)N1CCN=C21 [PIK-90] + Cc1nc(Nc2ncc(C(=O)Nc3c(C)cccc3Cl)s2)cc(N2CCN(CCO)CC2)n1 [dasatinib]"
test_target = "TK-10"
assay_value = 2.3

